Hello, the source for this data is PubChem BioAssay, in case you need it.

Biological target: Receptor tyrosine-protein kinase erbB-2 (Homo sapiens)
Test: reducers of endogenous Her2 protein level, primary screen, SKBR3 breast tumor cells, AlphaScreen, ATP viability (AID 461);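 also: lower value means less Her2 protein in the cells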
Conditions: 18-24 h, at 10 µM, stronger effect = lower value
readout_type: Her2 level (%)

[[record]]
compound = "COc1ccccc1C1C(C#N)=C(N)Oc2cc(C)n(Cc3ccccn3)c(=O)c21 (stereo not given)"
assay_target = "Receptor tyrosine-protein kinase erbB-2 (Homo sapiens)"
readout_type = "Her2 level"
endpoint_result = 133

[[record]]
compound = "O=C(CCNC(=O)Cn1ccc2ccccc2c1=O)NCCN1CCN(c2ccccc2F)CC1"
assay_target = "Receptor tyrosine-protein kinase erbB-2 (Homo sapiens)"
readout_type = "Her2 level"
endpoint_result = 92

[[record]]
compound = "COc1ccccc1N1CCN(C(=O)c2ccc3nc(-c4ccco4)c(-c4ccco4)nc3c2)CC1"
assay_target = "Receptor tyrosine-protein kinase erbB-2 (Homo sapiens)"
readout_type = "Her2 level"
endpoint_result = 79.5

[[record]]
compound = "COCCN1CN(S(=O)(=O)c2ccccc2)c2nc3ccccc3nc21"
assay_target = "Receptor tyrosine-protein kinase erbB-2 (Homo sapiens)"
readout_type = "Her2 level"
endpoint_result = 93.5

[[record]]
compound = "COc1ccccc1C(=O)NC(C)C(c1cccs1)N1CCN(C)CC1 (stereo not given)"
assay_target = "Receptor tyrosine-protein kinase erbB-2 (Homo sapiens)"
readout_type = "Her2 level"
endpoint_result = 149

[[record]]
compound = "C=C(C)COc1ccc(-c2nc(N)ncc2Oc2ccccc2OCC)c(O)c1"
assay_target = "Receptor tyrosine-protein kinase erbB-2 (Homo sapiens)"
readout_type = "Her2 level"
endpoint_result = 84.5

[[record]]
compound = "CC(Oc1ccccc1)C(=O)Nc1ccc(S(=O)(=O)NCC2CCCO2)cc1 (stereo not given)"
assay_target = "Receptor tyrosine-protein kinase erbB-2 (Homo sapiens)"
readout_type = "Her2 level"
endpoint_result = 94.5

[[record]]
compound = "CCOC(=O)c1c(C)oc2c1c(C=NCc1ccccn1)c(O)c1ccccc12"
assay_target = "Receptor tyrosine-protein kinase erbB-2 (Homo sapiens)"
readout_type = "Her2 level"
endpoint_result = 22

[[record]]
compound = "Cc1c(C(=O)NC2CCCc3ccccc32)oc2ccc(S(=O)(=O)N3CCOCC3)cc12 (stereo not given)"
assay_target = "Receptor tyrosine-protein kinase erbB-2 (Homo sapiens)"
readout_type = "Her2 level"
endpoint_result = 89.5

[[record]]
compound = "Cc1nnc(SC(=O)N2c3ccccc3Sc3ccccc32)s1"
assay_target = "Receptor tyrosine-protein kinase erbB-2 (Homo sapiens)"
readout_type = "Her2 level"
endpoint_result = 6.5


====

Experiment: reversal of MRP1-mediated doxorubicin resistance, pilot screen, H69AR cells, doxorubicin co-treatment (AID 601)
Settings: H69AR cells + 2 uM doxorubicin, CellTiter-Glo, 72 h; measured here: viability with 2 uM doxorubicin; at 10 µM; stronger effect = lower value
readout_type: viability (%)

[[record]]
compound = "Cc1c(Cl)cccc1Nc1ccccc1C(=O)O"
endpoint_result = 102

[[record]]
compound = "Cc1ccc(CCNC(=O)C2CCN(S(=O)(=O)c3cccc4nsnc34)CC2)cc1"
endpoint_result = 99.2

[[record]]
compound = "CC1(C)NC(=O)N(CC(O)CN2CCCCC2)C1=O (stereo unspecified)"
endpoint_result = 96

[[record]]
compound = "CC1CC(C)CN(CCCNC(=O)c2ccc3c(c2)NC(=O)C(N2CCCCC2)S3)C1 (stereo unspecified)"
endpoint_result = 82.8

[[record]]
compound = "CCCCCSc1nc2c(cnn2-c2ccccc2)c(=O)[nH]1"
endpoint_result = 50.1

[[record]]
compound = "CCN1CCN(CCNC(=O)c2cn(C(C)c3ccccc3F)nn2)CC1 (stereo unspecified)"
endpoint_result = 87.8

[[record]]
compound = "O=C1c2cccnc2C(O)N1Cc1ccc(F)cc1 (stereo unspecified)"
endpoint_result = 97.7

[[record]]
compound = "CC(C)Oc1cccc(-c2cc(C(=O)N3CCN(S(C)(=O)=O)CC3)c3ccccc3n2)c1"
endpoint_result = 75.4

[[record]]
compound = "CCOC(=O)c1sc2nc3c(cc2c1N)COC(C)(C)C3"
endpoint_result = 94.5

[[record]]
compound = "O=c1[nH]c(Nc2ccccc2)cc2ccccc12"
endpoint_result = 97.9

[[record]]
compound = "COc1ccc(C)cc1-n1nnnc1SC/C(O)=C(\\C#N)c1nc2ccccc2[nH]1"
endpoint_result = 98.4

